# Test system: SK-MEL-2
# experimentalDetails: NCI tumour cell line growth inhibition, 48 h
The source made the active and inactive calls. Rule as the data show it: active = GI50 up to about 1.1 µM and inactive = higher.
readout: GI50

A selection of reference data follows.
                                   molecule  readout           assayvalue
0  O=C(Nn1cnn2c(=O)c3ccccc3nc2c1=O)c1ccccc1     GI50  > 100 µM (inactive)
1       CCOC(=O)Nc1nc2cc(Cn3cccc3)ccc2[nH]1     GI50   2.01 µM (inactive)
2  C=CC1(CBr)CCC(C(C)(C)Br)O1 (stereo not given)     GI50   12.8 µM (inactive)

Endpoint output: GI50 of O=C(NC(=O)c1cn(CCN(CCO)C(=O)NCCCCCCNC(=O)N(CCO)CCn2cc(C(=O)NC(=O)OCc3ccccc3)c(=O)[nH]c2=O)c(=O)[nH]c1=O)OCc1ccccc1 . Value?
> 100 µM (inactive)

Endpoint output: GI50 of C[C@H](C(=O)C12CC3CC(CC(C3)C1)C2)[C@H](O)c1ccccc1 . Value?
19 µM (inactive)

* * *

# System: DMS-273
# experimentalDetails: NCI tumour cell line growth inhibition, 48 h
Active and inactive are the calls of the source. No stated cut-off is given here; in the data, active = GI50 up to about 1.1 µM and inactive = higher.
Collected GI50 values appear next to each entry.

In [3]: df
Out[3]:
                              molecule          assayvalue
0  CCOC(=O)Nc1nc2cc(Cn3cccc3)ccc2[nH]1  3.66 µM (inactive)

Endpoint output: GI50 of CC1(C)CCC[C@@]2(C)C1CCC1(C)C(CCc3ccoc3)/C(=C/OS(=O)(=O)O)CCC12 (some centres not stated) . Value?
> 100 µM (inactive)

Endpoint output: GI50 of C=C1CC2OC2(C(=O)O[C@H]2CCC3[C@@H]4CCC5=CC(=O)CC[C@]5(C)C4CC[C@@]32C)C1=O (some centres not stated) . Value?
4.45 µM (inactive)

Endpoint output: GI50 of N#CCc1ccc(C(C#N)/C(CCCC(=O)Nc2cccc([N+](=O)[O-])c2)=N/NC(N)=S)cc1 (configuration not stated) . Value?
> 100 µM (inactive)

Endpoint output: GI50 of C=C(CN(C)C)C(=O)c1ccccc1 . Value?
13.7 µM (inactive)

Endpoint output: GI50 of O=C(O)COc1ccc2c3c1C(=O)CCC3CO2 (configuration not stated) . Value?
> 100 µM (inactive)

Endpoint output: GI50 of COc1ccccc1-c1csc(CCC(N)C(=O)O)n1 (configuration not stated) . Value?
> 100 µM (inactive)

Endpoint output: GI50 of Cc1c(Cl)cccc1NC(=O)c1cccc([N+](=O)[O-])c1O . Value?
12.4 µM (inactive)

* * *

# Test system: OVCAR-4
# experimentalDetails: NCI tumour cell line growth inhibition, 48 h
The source made the active and inactive calls. Cut-off read from the data, not from the text of the source: active = GI50 up to about 1.1 µM and inactive = higher.
Tick one outcome: active, inactive

For CN(C)CCC(=O)N1CCc2c([nH]c3ccccc23)C1c1cccnc1 (stereo not given) , what call appears in the results of this test?
inactive

For COc1ccc(/C=C2\OC(=O)C(Cl)=C2c2ccc(OC)cc2)cc1 , what call appears in the results of this test?
inactive

For O=C(/C=C1\C[C@H]2C=Nc3ccccc3C(=O)N2C1)NCCCCNC(=O)/C=C1\C[C@H]2C=Nc3ccccc3C(=O)N2C1 , what call appears in the results of this test?
inactive

For Cc1nc2c(O)c3c(c(O)c2nc1C)C1C=CC3CC1 , what call appears in the results of this test?
inactive

For Cc1ccc(CC(=O)Nc2ccc(NC(=O)/C=C/NC(=O)/C=C/c3ccc(-c4ccccc4)cc3)cc2C(=O)c2ccccc2)cc1 , what call appears in the results of this test?
inactive

For C/C(=N\Nc1nc2ccccc2o1)c1cc(C)ncn1 , what call appears in the results of this test?
active

For COc1cc(O)c2c(=O)c3ccccc3n(C)c2c1 , what call appears in the results of this test?
inactive

For COc1ccc(C2=CC(C(C)=C(C(N)=O)C(N)=O)C=C(c3ccc(Br)cc3)C2)c(OC)c1 (stereo not given) , what call appears in the results of this test?
inactive

For CCOC(=O)CN1C(=O)c2ccc(NC(=O)C(=O)O)cc2S1(=O)=O , what call appears in the results of this test?
inactive

For CC(C)(C)N1CC2(CCCCC2)C1=O , what call appears in the results of this test?
inactive
